molecular target: T1, FX activation peptide 12-mer DFNQTQPERGDN (human); assay: peptide ELISA
T1 peptide: DFNQTQPERGDN-biotin
Ends that are not written are not given here.
measured.endpoint: ELISA signal relative to background

Example entries and their recorded answers appear below.
INSERT INTO measurements (binder, readout_value) VALUES
  ('Nb 701B09 (VHH, monovalent Nanobody; also called Nb 701609; not shown: C-terminal FLAG3 and HIS6 tag) VHH: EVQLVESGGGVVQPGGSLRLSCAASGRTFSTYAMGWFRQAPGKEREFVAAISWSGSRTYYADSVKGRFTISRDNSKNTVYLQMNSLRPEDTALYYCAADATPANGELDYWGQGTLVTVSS', 0.87),
  ('Nb 729A04 (VHH, monovalent Nanobody; not shown: C-terminal FLAG3 and HIS6 tag) VHH: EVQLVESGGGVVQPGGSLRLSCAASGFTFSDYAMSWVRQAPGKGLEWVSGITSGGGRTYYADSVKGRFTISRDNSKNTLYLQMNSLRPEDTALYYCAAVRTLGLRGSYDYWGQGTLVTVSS', 0.97),
  ('Nb 701C06 (VHH, monovalent Nanobody; not shown: C-terminal FLAG3 and HIS6 tag) VHH: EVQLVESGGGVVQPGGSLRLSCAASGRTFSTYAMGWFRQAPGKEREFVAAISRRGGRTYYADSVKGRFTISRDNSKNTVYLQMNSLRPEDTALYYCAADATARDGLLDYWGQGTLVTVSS', 0.87);

Note: attention shifts to another entry.
Recorded ELISA signal relative to background (binder Nb 702C12 (VHH, monovalent Nanobody; not shown: C-terminal FLAG3 and HIS6 tag) VHH: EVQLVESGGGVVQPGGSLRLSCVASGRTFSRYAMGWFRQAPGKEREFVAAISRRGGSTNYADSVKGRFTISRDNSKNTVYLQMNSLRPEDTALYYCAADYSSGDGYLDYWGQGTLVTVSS ): 0.94

Each recorded value in this set is attributed to patent US20210054097A1.
